These entries and their values trace back to patent US11332470B2.

Each entry below lists one item and its recorded pIC50 value.
- tgt: CXCR4 (U87.CXCR4 cells) (Homo sapiens, UniProt P61073)
- Sequence (P61073 whole entry): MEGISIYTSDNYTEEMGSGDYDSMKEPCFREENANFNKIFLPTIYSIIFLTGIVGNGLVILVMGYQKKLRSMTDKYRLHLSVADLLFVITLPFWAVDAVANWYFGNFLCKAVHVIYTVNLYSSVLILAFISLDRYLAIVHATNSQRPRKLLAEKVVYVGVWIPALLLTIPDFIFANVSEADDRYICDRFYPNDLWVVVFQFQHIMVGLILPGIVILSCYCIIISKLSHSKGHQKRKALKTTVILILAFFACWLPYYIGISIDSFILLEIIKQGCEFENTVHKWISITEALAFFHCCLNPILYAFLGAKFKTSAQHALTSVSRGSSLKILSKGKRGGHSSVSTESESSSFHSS
- test summary: Intracellular CXCL-12-induced calcium mobilization assay (FLIPR)
- test settings: CXCL-12 25-50 ng/mL, read-out: IC50 CXCL-12 Ca2+ flux U87.CXCR4+
pIC50: −log10 of the molar value.
measured metric: pIC50

* c1ccc(C2CCCN2Cc2nc3ccccn3c2N2CCN(c3ccccn3)CC2)nc1 (stereo not drawn) [Compound I-97] | 6.00 to 7.00
* CN1CCN(c2cccc3nc(CN4CCCC4c4ncc[nH]4)cn23)CC1 (stereo not drawn) [Compound I-50] | ≤ 6.00
* CN1CCN(c2c(CN3CCCC3c3ncccc3Cl)nc3ccccn23)CC1 (stereo not drawn) [Compound I-59] | 7.00 to 11.00
* Cc1cccnc1C1CCCN1Cc1ncccc1N1CCN(C)CC1 (stereo not drawn) [Compound I-53] | ≤ 6.00
* CN1CCN(c2cccc3nc(CN4CCCC4c4nccc5ccccc45)cn23)CC1 (stereo not drawn) [Compound I-14] | 6.00 to 7.00
* Cc1cccnc1CN1CCCC1c1cn2c(N3CCN(C)CC3)cccc2n1 (stereo not drawn) [Compound I-103] | 7.00 to 11.00
* c1ccc(C2CCCN2Cc2nc3ccccn3c2N2CCN(c3ccncc3)CC2)nc1 (stereo not drawn) [Compound I-133] | ≤ 6.00
* Cc1cccnc1C1CCCN1Cc1nc2cccc(N3CCN(C)CC3)n2c1Br (stereo not drawn) [Compound I-7] | 6.00 to 7.00
* Cc1cccnc1C1CCCN1Cc1nc2ccccc2n1CC1CCN(C)CC1 (stereo not drawn) [Compound I-122] | 7.00 to 11.00
* CN1CCN(c2c(CN3CCCC3c3ccccn3)nc3c(F)cccn23)CC1 (stereo not drawn) [Compound I-61] | 6.00 to 7.00
* CN1CCC(n2c(CN3CCCC3c3ccccn3)nc3ccccc32)CC1 (stereo not drawn) [Compound I-54] | 6.00 to 7.00
* c1ccc(C2CCCN2Cc2nc3ccccn3c2COc2cccnc2)nc1 (stereo not drawn) [Compound I-95] | ≤ 6.00
* Cc1cccnc1CN1CCCC1c1cn2c(N3CCN(CC(F)(F)F)CC3)cccc2n1 (stereo not drawn) [Compound I-129] | ≤ 6.00
* Cc1cccnc1C1CCCN1Cc1nccn1Cc1ccncc1 (stereo not drawn) [Compound I-87] | ≤ 6.00
* CN1CCN(c2c(CN3CCCC3c3ccccn3)nc3ccccn23)CC12CC2 (stereo not drawn) [Compound I-58] | 7.00 to 11.00
* Cc1cccnc1C1CCCN1Cc1nc2cccc(N3CCN(C4CC4)CC3)c2[nH]1 (stereo not drawn) [Compound I-31] | 6.00 to 7.00
* Cc1cccnc1C1CCCN1Cc1ncccc1CN1CCOCC1 (stereo not drawn) [Compound I-118] | ≤ 6.00
* Cc1cccnc1C1CCCN1Cc1nccn1CC1CCN(CC(F)(F)F)CC1 (stereo not drawn) [Compound I-106] | ≤ 6.00

* * *

- test summary: Mouse brain uptake assay (pharmacokinetics and brain penetration after IV administration)
- Assay type: in vivo, Male CD1 Mice
- test settings: male, CD1, plasma; mouse, 3 mg/kg IV, 0-1 h, 3 time points; read-out: t½ (half life) (converted)
measured metric: half-life (h)

• CN1CCN(c2c(CN3CCCC3c3ccccn3)nc3ccc(F)cn23)CC1 (centres unmarked) [Compound I-63] = 3.87
• Cc1cccnc1C1CCCN1Cc1nc2ccccc2n1C1CCN(C)CC1 (centres unmarked) [Compound I-33] = 4.93
• Cc1cccnc1CN1CCCC1c1nc2cccc(N3CCN(C)CC3)c2[nH]1 (centres unmarked) [Compound I-45] = 3.99
• CN1CCN(c2c(CN3CCCC3c3ccccn3)nc3ccccn23)CC1 (centres unmarked) [Compound I-41] = 5.33
• CN1CCN(c2c(CN3CCCC3c3nccs3)nc3ccccn23)CC1 (centres unmarked) [Compound I-70] = 3.64
